Reference for the values: PubChem BioAssay (EPA / NIEHS)

- Test summary: ACEA_ER_80hr: ACEA Biosciences xCELLigence Real-Time Cell Analysis on Estrogen Receptor Agonism for Proliferation (AID 2282667)
- Stated conditions: T47D proliferation, impedance (xCELLigence), 80 h
Results filed as inconclusive are left out. Calls of active or inactive are those of the source. How the source made its calls: active means hit-call score of the fitted dose curve at least 0.9, where 1 is the maximum; inconclusive means response in the unintended direction; inactive means score below 0.9.
Answer with one of the outcomes given here: active, inactive

Task: In this assay, the call recorded for O=C(O)c1nc(Cl)ccc1Cl was what?
Output: inactive

Task: In this assay, the call recorded for CCNc1nc(Cl)nc(NC(C)C)n1 was what?
Output: inactive

Task: In this assay, the call recorded for CCc1nn(C)c(C(=O)NCc2ccc(C(C)(C)C)cc2)c1Cl was what?
Output: active

Task: In this assay, the call recorded for Cc1ccc(-c2c(Cl)nc(C#N)n2S(=O)(=O)N(C)C)cc1 was what?
Output: active

Task: In this assay, the call recorded for CCCC1COC(Cn2cncn2)(c2ccc(Cl)cc2Cl)O1 (stereo not drawn) was what?
Output: inactive

Task: In this assay, the call recorded for COC(=O)C=C(C)OP(=O)(OC)OC was what?
Output: inactive

Task: In this assay, the call recorded for Cc1c(F)c(F)c(COC(=O)C2C(/C=C(\Cl)C(F)(F)F)C2(C)C)c(F)c1F (stereo not drawn) was what?
Output: inactive

Task: In this assay, the call recorded for Fc1ccc(Oc2ccnc3cc(Cl)cc(Cl)c23)cc1 was what?
Output: inactive

Task: In this assay, the call recorded for CCCCOC(=O)c1ccccc1C(=O)OCCCC was what?
Output: inactive

Task: In this assay, the call recorded for N#CC(CCc1ccc(Cl)cc1)(Cn1cncn1)c1ccccc1 (stereo not drawn) was what?
Output: inactive

Task: In this assay, the call recorded for CC(C)(C)c1ccc(CSc2cnn(C(C)(C)C)c(=O)c2Cl)cc1 was what?
Output: active

Task: In this assay, the call recorded for OC(c1ccc(Cl)cc1)(c1cncnc1)c1ccccc1Cl (stereo not drawn) was what?
Output: inactive

Task: In this assay, the call recorded for C=CC1(C)OC(=O)N(c2cc(Cl)cc(Cl)c2)C1=O (stereo not drawn) was what?
Output: inactive

Task: In this assay, the call recorded for Oc1ccccc1-c1ccccc1 was what?
Output: inactive

Task: In this assay, the call recorded for CN(C)C(=S)SSC(=S)N(C)C was what?
Output: active

Task: In this assay, the call recorded for CCON=C(CC)C1=C(O)CC(c2c(C)cc(C)cc2C)CC1=O (stereo not drawn) was what?
Output: inactive

Task: In this assay, the call recorded for CCCN(CCC)c1c([N+](=O)[O-])cc(S(N)(=O)=O)cc1[N+](=O)[O-] was what?
Output: inactive

Task: In this assay, the call recorded for CS/C(C)=N/OC(=O)N(C)SN(C)C(=O)O/N=C(\C)SC was what?
Output: active

Task: In this assay, the call recorded for O=C(O)COc1nc(Cl)c(Cl)cc1Cl was what?
Output: inactive

Task: In this assay, the call recorded for CCCCC(CC)COC(=O)c1ccccc1C(=O)OCC(CC)CCCC (stereo not drawn) was what?
Output: inactive

Task: In this assay, the call recorded for C=CCC1=C(C)[C@@H](OC(=O)[C@@H]2[C@@H](C=C(C)C)C2(C)C)CC1=O was what?
Output: inactive

Task: In this assay, the call recorded for COc1nc(NC(C)C)nc(NC(C)C)n1 was what?
Output: inactive

Task: In this assay, the call recorded for CNC(=O)ON=CC(C)(C)SC was what?
Output: inactive

Task: In this assay, the call recorded for N#Cc1nn(-c2c(Cl)cc(C(F)(F)F)cc2Cl)c(N)c1S(=O)C(F)(F)F (stereo not drawn) was what?
Output: inactive

Task: In this assay, the call recorded for C=CCC1=C(C)C(OC(=O)C2C(C=C(C)C)C2(C)C)CC1=O (stereo not drawn) was what?
Output: inactive

Task: In this assay, the call recorded for CON(C)C(=O)Nc1ccc(Cl)c(Cl)c1 was what?
Output: inactive

Task: In this assay, the call recorded for CCOc1cc(Oc2ccc(C(F)(F)F)cc2Cl)ccc1[N+](=O)[O-] was what?
Output: inactive

Task: In this assay, the call recorded for N#Cc1cc(Br)c(O)c(Br)c1 was what?
Output: inactive
